Target: Beta-lactamase SHV-1 (Escherichia coli, UniProt P0AD63)
Sequence (P0AD63 whole entry): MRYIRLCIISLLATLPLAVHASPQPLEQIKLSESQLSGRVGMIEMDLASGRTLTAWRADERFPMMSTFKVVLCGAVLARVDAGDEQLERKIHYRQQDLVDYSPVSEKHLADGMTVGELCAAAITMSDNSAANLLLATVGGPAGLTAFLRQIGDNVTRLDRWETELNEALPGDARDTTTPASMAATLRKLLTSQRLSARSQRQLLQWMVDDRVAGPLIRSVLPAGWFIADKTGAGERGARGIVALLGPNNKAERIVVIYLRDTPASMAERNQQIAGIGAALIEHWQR
Experiment: Binding affinity at Beta-lactamase SHV1 expressed in Escherichia coli DH10B cells
Reported Ki values are given for each entry in this list.
API: value field is a number in µM; no unit string.

Below: 2 compounds and their reported Ki.
* CC(C)(O/N=C(\C(=O)NCB(O)O)c1csc(N)n1)C(=O)O [CEFTAZIDIME BATSI] | 2.2
* CO/N=C(\C(=O)NCB(O)O)c1csc(N)n1 [CEFOTAXIME BATSI] | 8.9

Turning now to a further record.
-- ask Look up Ki with Beta-lactamase SHV-1 (Escherichia coli, UniProt P0AD63) for this compound: CC(=O)NCB(O)O [ACETAMIDOMETHYLBORONIC ACID]
-- reply 300

====

Assay: Binding affinity at Beta-lactamase D104K expressed in Escherichia coli DH10B cells
property.measured: Ki (µM)
API: value field is a number in µM; no unit string.

Below: 2 compounds and their reported Ki.
- CC(=O)NCB(O)O: 190
- CO/N=C(\C(=O)NCB(O)O)c1csc(N)n1: 5

Turning now to a further record.
-- ask Query: Ki; subject: CC(C)(O/N=C(\C(=O)NCB(O)O)c1csc(N)n1)C(=O)O
-- reply 0.7
